measurementDescription: Kinetic solubility and disproportionation of sepiapterin salts and/or co-crystals in water and Medisca Oral Mix (Example 8)
Format: physicochemical
experimentalParameters: Medisca Oral Mix, aqueous with cosolvent or surfactant or cyclodextrin, thermodynamic from solid, 1 hr, RT; calculated using freebase; target conc. ~7 mg/mL
assayMetric: solubility at 1 hr (µg/mL)
The answer is to be given in µg/mL; state only the numeric part.

[ask] Can you share its solubility at 1 hr? I mean this molecule: C[C@H](O)C(=O)C1=Nc2c(nc(N)[nH]c2=O)NC1 [Nicotinate]
[reply] 2600

----------
measurementDescription: Kinetic solubility and disproportionation of sepiapterin salts and/or co-crystals in water and Medisca Oral Mix (Example 8)
Assay type: physicochemical
experimentalParameters: water, thermodynamic from solid, 4 hr, RT; calculated using freebase; target conc. ~7 mg/mL
assayMetric: solubility at 4 hr (µg/mL)
The answer is to be given in µg/mL; state only the numeric part.

[ask] Can you share its solubility at 4 hr? I mean this compound: C[C@H](O)C(=O)C1=Nc2c(nc(N)[nH]c2=O)NC1 [Nicotinate]
[reply] 2300

----------
measurementDescription: Kinetic solubility and disproportionation of sepiapterin salts and/or co-crystals in water and Medisca Oral Mix (Example 8)
Type: physicochemical
experimentalParameters: Medisca Oral Mix, aqueous with cosolvent or surfactant or cyclodextrin, thermodynamic from solid, 4 hr, RT; calculated using freebase; target conc. ~7 mg/mL
assayMetric: solubility at 4 hr

[ask] Can you share its solubility at 4 hr? I mean this compound: C[C@H](O)C(=O)C1=Nc2c(nc(N)[nH]c2=O)NC1 [Nicotinate]
[reply] 3100 µg/mL

----------
measurementDescription: Kinetic solubility and disproportionation of sepiapterin salts and/or co-crystals in water and Medisca Oral Mix (Example 8)
Assay type: physicochemical
experimentalParameters: Medisca Oral Mix, aqueous with cosolvent or surfactant or cyclodextrin, thermodynamic from solid, 24 hr, RT; calculated using freebase; target conc. ~7 mg/mL
assayMetric: solubility at 24 hr (µg/mL)
The answer is to be given in µg/mL; state only the numeric part.

[ask] Can you share its solubility at 24 hr? I mean this compound: C[C@H](O)C(=O)C1=Nc2c(nc(N)[nH]c2=O)NC1 [Nicotinate]
[reply] 3500

----------
measurementDescription: Kinetic solubility and disproportionation of sepiapterin salts and/or co-crystals in water and Medisca Oral Mix (Example 8)
Format: physicochemical
experimentalParameters: water, thermodynamic from solid, 24 hr, RT; calculated using freebase; target conc. ~7 mg/mL
assayMetric: solubility at 24 hr (µg/mL)
The answer is to be given in µg/mL; state only the numeric part.

[ask] Can you share its solubility at 24 hr? I mean this compound: C[C@H](O)C(=O)C1=Nc2c(nc(N)[nH]c2=O)NC1 [Nicotinate]
[reply] 1800
